Provenance of the data: paper PMC4770311

Overview of recorded IC50 for various molecules
molecular target: BAZ2A (Homo sapiens); construct: Recombinant BAZ2A and BAZ2B bromodomains were expressed in; made in house; host or cells: E. coli; assay: AlphaScreen assay BAZ2A; type: binding; conditions: average of three replicates ± SEM
Please state the figure in nM; there is no need to write the unit.

Below: 6 molecules and their reported IC50.
1. CC(=O)c1cc(-c2ccccc2CO)c2cc(C(N)=O)ccn12 :: 4100
2. CC(=O)c1cc(-c2ccc(N(C)C)cc2)c2ccccn12 :: 1100
3. COc1ccn2c(C(C)=O)cc(-c3ccccc3S(C)(=O)=O)c2c1 :: 580
4. CC(=O)c1cc(-c2ccccn2)c2ccccn12 :: 1500
5. CC(=O)c1cc(-c2ccccc2O)c2ccccn12 :: 7200
6. CC(=O)c1cc(-c2ccccc2S(C)(=O)=O)c2cc(CNC(=O)OC(C)(C)C)ccn12 :: 160

**Q:** Consider the molecule shown here: `CC(=O)c1cc(-c2ccccc2CO)c2cc(C)ccn12` What is its recorded IC50?
**A:** 1000

====

Target: BRD9 (Homo sapiens)
Construct: ITC experiments using the bromodomain of BRD9
Test: AlphaScreen cross screening BRD9
Conditions: average of three replicates ± SEM
Description: AlphaScreen: AlphaScreen was performed as described previously 10, with minor modifications from the manufacturers protocol (PerkinElmer, USA). […] Plates were sealed and incubated at room temperature for 30 min. […] Plates were foil sealed to protect from light, incubated at room temperature for 60 min and read on a PHERAstar FS plate reader (BMG Labtech, Germany) using an AlphaScreen 680 excitation/570 emission filter set. […]
// reported IC50 for each item listed

Examples with their reported IC50 follow.
1. COc1ccn2c(C(C)=O)cc(-c3ccccc3S(C)(=O)=O)c2c1 :: > 50 µM
2. CC(=O)c1cc(-c2ccccc2S(C)(=O)=O)c2ccccn12 :: 17.9 µM
3. CC(=O)c1cc(-c2ccccc2S(C)(=O)=O)c2cc(Oc3ccccc3)ccn12 :: 19.9 µM
4. CC(=O)c1cc(-c2ccccc2CO)c2ccccn12 :: 23.7 µM
5. CCCOc1ccn2c(C(C)=O)cc(-c3ccccc3S(C)(=O)=O)c2c1 :: > 50 µM

**Q:** Which IC50 reading was recorded for the molecule `CC(=O)c1cc(-c2ccccc2S(C)(=O)=O)c2cc(CNC(=O)OC(C)(C)C)ccn12` ?
**A:** 1.4 µM

====

Molecular target: BRD9 (Homo sapiens, UniProt Q9H8M2)
Construct: ITC experiments using the bromodomain of BRD9
Sequence (Q9H8M2 136-240): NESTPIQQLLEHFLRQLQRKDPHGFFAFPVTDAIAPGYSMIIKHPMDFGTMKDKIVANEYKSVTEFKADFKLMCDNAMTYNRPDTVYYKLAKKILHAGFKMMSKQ
Assay: Isothermal titration calorimetry BRD9
Type: binding
Conditions: ITC
Experimental: VP-ITC (MicroCal) at 15 °C. reaction cell containing the inhibitors (15 µM). Integrated heat of the titrations after corrected modifications from the manufacturers protocol (PerkinElmer, USA). Briefly, all reagents were final) were then added under low light conditions. Plates were foil sealed to protect from […]
experimental.endpoint: Kd
In your response, put the unit directly after the numeric value.

**Q:** // lookup Kd for `CCCOc1ccn2c(C(C)=O)cc(-c3cccc(OC)c3)c2c1`
**A:** 1.04 µM

====

Listed compounds paired with reported pIC50
target: BRD4(1) (Homo sapiens)
pIC50: −log10 of the molar value.

Answered cases to consult:
1. CCCOc1ccn2c(C(C)=O)cc(-c3ccccc3S(C)(=O)=O)c2c1 :: < 4.30
2. CC(=O)c1cc(-c2ccccc2CO)c2ccccn12 :: 4.41
3. CC(=O)c1cc(-c2ccccc2S(C)(=O)=O)c2cc(CNC(=O)OC(C)(C)C)ccn12 :: < 4.30
4. CC(=O)c1cc(-c2ccccc2S(C)(=O)=O)c2ccccn12 :: < 4.30
5. CC(=O)c1cc(-c2ccccc2S(C)(=O)=O)c2cc(Oc3ccccc3)ccn12 :: < 4.30

**Q:** Request body: readout pIC50, system BRD4(1) (Homo sapiens), query `COc1ccn2c(C(C)=O)cc(-c3ccccc3S(C)(=O)=O)c2c1` . Return the value.
**A:** < 4.30

====

Catalogue of log10(IC50) values
Target: BAZ2A (Homo sapiens, UniProt Q9UIF9)
Construct: Recombinant BAZ2A and BAZ2B bromodomains were expressed in
Sequence (Q9UIF9 1793-1897 limits assumed): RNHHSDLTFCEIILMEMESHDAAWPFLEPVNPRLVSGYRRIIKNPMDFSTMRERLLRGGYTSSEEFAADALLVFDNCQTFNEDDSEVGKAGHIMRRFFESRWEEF
Assay: AlphaScreen assay BAZ2A
Details: average of three replicates ± SEM
Experimental: AlphaScreen: AlphaScreen was performed as described previously 10, with minor modifications from the manufacturers protocol (PerkinElmer, USA). […] Plates were sealed and incubated at room temperature for 30 min. […] Plates were foil sealed to protect from light, incubated at room temperature for 60 min and read on a PHERAstar FS plate reader (BMG Labtech, Germany) using an AlphaScreen 680 excitation/570 emission filter set. […]
log10 IC50, nM

1. CC(=O)c1cc(-c2ccccc2S(C)(=O)=O)c2cc(Oc3ccccc3)ccn12 :: 2.74
2. COc1ccn2c(C(C)=O)cc(-c3ccccc3CO)c2c1 :: 3.08
3. CC(=O)c1cc(-c2ccccc2CO)c2cc(N3CCOCC3)ccn12 :: 3.23
4. CC(=O)c1cc(-c2ccccc2S(C)(=O)=O)c2ccccn12 :: 2.86
5. CC(=O)c1cc(-c2ccc(CO)cc2)c2ccccn12 :: 3.08

**Q:** Value lookup for log10(IC50); key = `CC(=O)c1cc(-c2cccc(O)c2)c2ccccn12`
**A:** 3.52

**Q:** For the compound `COc1ccc(-c2cc(C(C)=O)n3ccccc23)c(CO)c1` , what log10(IC50) is on record?
**A:** 3.15

====

Reported IC50 values are given for each entry in this list.
target: BAZ2A (Homo sapiens, UniProt Q9UIF9); construct: Recombinant BAZ2A and BAZ2B bromodomains were expressed in; made in house; host or cells: E. coli; test: AlphaScreen assay BAZ2A; assay type: binding; conditions: average of three replicates ± SEM
The reply should be a number in µM, with the unit left off.

1. CC(=O)c1cc(-c2cccs2)c2ccccn12 :: 8.6
2. CC(=O)c1cc(-c2ccccc2CO)c2cc(Oc3ccccc3)ccn12 :: 4.1
3. CC(=O)c1cc(-c2cccc(C(N)=O)c2)c2ccccn12 [Compound 8, 3-(3-acetylindolizin-1-yl)benzamide] :: 1.8
4. CC(=O)c1cc(-c2ccccc2S(C)(=O)=O)c2cc(C)ccn12 :: 0.89

Attention now turns to another entry.
**Q:** What does the data say about its IC50? Entry: `CC(=O)c1cc(-c2ccccc2CO)c2ccccn12`
**A:** 1.8
